Where do these numbers come from? They come from ChEMBL document CHEMBL3272174.

System: Calf thymus DNA
assay protocol: Binding affinity to calf thymus DNA assessed as melting temperature at 10^-4 M by thermal denaturation assay
Format: nucleic-acid assay
particulars: Bos taurus
attribute measured: Tm (°C)
Give the quantity in °C, number only.

compound	attribute measured	measure unit	endpoint result
O[C@@H](c1cc(C(F)(F)F)nc2c(C(F)(F)F)cccc12)[C@H]1CCCCN1 (relative stereo)	Tm	°C	63
C=C[C@H]1CN2CC[C@H]1C[C@H]2[C@H](O)c1ccnc2ccc(OC)cc12	Tm	°C	66.3
NC(=O)c1cc(C(O)C2CCCCN2)c2cccc(C(F)(F)F)c2n1 (centres undefined)	Tm	°C	64.9

Now consider a different compound.
Exam item: Quick check: Tm of OC(c1cc(C(F)(F)F)nc2c(F)cccc12)C1CCCCN1 (centres undefined) ?
Marked response: 61.5

----------
Tested on: Calf thymus DNA
assay protocol: Binding affinity to sonicated calf thymus DNA by viscometric titrations
Format: nucleic-acid assay
particulars: Bos taurus
Active and inactive are the calls of the source. The calls are words filed in the database; no cut-off is given here.
Log the outcome using a class from t = active, f = inactive

compound	group
C=C[C@H]1CN2CC[C@H]1C[C@H]2[C@H](O)c1ccnc2ccc(OC)cc12	t

We next turn to a different compound, shown below.
Exam item: So what was the verdict on CCN(CC)CCCC(C)Nc1ccnc2cc(Cl)ccc12 (stereo unspecified) in this test?
Marked response: t

----------
Tested on: Calf thymus DNA
assay protocol: Binding affinity to sonicated calf thymus DNA by viscometric titrations
Type: nucleic-acid assay
particulars: Bos taurus
Calls of active or inactive are those of the source. No cut-off for these calls is given here.

compound	Activity
NC(=O)c1cc(C(O)C2CCCCN2)c2cccc(C(F)(F)F)c2n1 (centres undefined)	Active
CCN(CC)CCCC(C)Nc1c2ccc(Cl)cc2nc2ccc(OC)cc12 (centres undefined)	Active
O[C@@H](c1cc(C(F)(F)F)nc2c(C(F)(F)F)cccc12)[C@H]1CCCCN1 (relative stereo)	inactive
OC(c1cc(C(F)(F)F)nc2c(F)cccc12)C1CCCCN1 (centres undefined)	inactive
